Entries and their measured % antibody positive transfected cells follow.
SYSTEM_NAME: T1, human CD3ε and CD3δ co-expressed on HEK293F cells (human, UniProt P07766 23-207; P04234 22-171)
T1 construct: also called huCD3ε/δ (transfected cells); huCD3e + huCD3d
ASSAY_PROCEDURE: flow cytometry, transfected HEK293F
PARAMETER: % antibody positive transfected cells

• 4B4-D7 Fab (Fab, V domains shown, also called BDW-4B4-D7) VH: EVQLVETGGRLVQPGRSLKLTCATSGFTFSNAWMHWVRQSPEKQLEWVAQIKARSNNYATYYAESVKGRFTISRDDSKSTIYLQMNSLKEEDTAIYYCRGTYYASKPFDYWGQGVMVTVSS VL: DVVMTQTPVSLSVSLGGQVSISCRSSQSLVHDNGNTYLSWSLQRPGQSPQVLIYKVSNRFSGTSDRFTGSGSGTDFTLKISRVEPDDLGVYYCGQGTQYPFTFGSGTKLEIKR = 69.5%
• 4E7-C9 Fab (Fab, V domains shown, also called BDX-4E7-C9) VH: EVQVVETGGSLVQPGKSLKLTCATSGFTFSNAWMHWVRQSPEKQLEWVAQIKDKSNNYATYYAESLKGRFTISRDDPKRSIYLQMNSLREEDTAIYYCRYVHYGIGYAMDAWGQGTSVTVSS VL: DVVMTQTPVSLSVSLGGQVSISCRSSQSLEHNNGNTYLSWYLQKPGQSPQPLIYKVSNRFSGISDRFSGSGSGTDFTLKISRVEPDDLGVYYCGQGTQYPFTFGPGTKLELKR = 66.4%
